Test: Radioprotective activity in rat thymocytes assessed as radio-modification factor pretreated at 1000 uM followed by 2 Gy X-ray irradiation measured after 4 hrs by flow cytometric analysis relative to control
Format: ADME, cell-based
Details: thymocyte
Threshold 0.2. Ratio below it: Satisfied. Ratio at it or above: Not satisfied.

Request: is_below(Ratio, 0.2) for COc1ccc(/C=C/c2cccc(OC)c2)cc1 ?
Response: Not satisfied

Next:
Request: Dear colleague, could you confirm whether Ratio of COc1ccc(/C=C/c2ccc(OC)c(OC)c2)cc1OC falls below 0.2? Thanks.
Response: Not satisfied

Request: I'd appreciate it if you could check whether Oc1ccc(/C=C/c2ccc(O)cc2)cc1 [TRANS-4,4'-DIHYDROXYSTILBENE] has Ratio smaller than 0.2.
Response: Not satisfied

Request: State whether 0.2 exceeds Ratio recorded for COc1ccc(/C=C/c2cc(OC)ccc2OC)cc1 .
Response: Not satisfied

Request: Check if Ratio falls below 0.2 for COc1cc(/C=C/c2ccccc2OC)cc(OC)c1 .
Response: Satisfied

Request: # TODO verify Ratio < 0.2 strictly for this compound: Oc1ccc(/C=C/c2cccc(O)c2)cc1 [(E)-3,4'-STILBENDIOL]
Response: Not satisfied

====

Examples of molecules with documented Ratio follow.
Tested on: Thymocyte
Assay: Toxicity in rat thymocytes assessed as increase in cell death at 1000 uM measured after 4 hrs by flow cytometric analysis relative to control
Assay type: cell-based

Sample records with Ratio:
Request: Which Ratio reading was recorded for the molecule Oc1ccc(/C=C/c2ccc(O)cc2)cc1 [TRANS-4,4'-DIHYDROXYSTILBENE] ?
Response: < 5

Request: Recorded Ratio for COc1cc(/C=C/c2ccc(F)cc2)cc(OC)c1 , please?
Response: > 10

Request: Field request: Ratio | item: Oc1cc(O)cc(/C=C/c2ccc(Cl)cc2)c1
Response: > 10

Continuing:
Request: Recorded Ratio of Oc1ccc(/C=C/c2cc(O)cc(O)c2)cc1 [RESVERATROL] , please.
Response: < 5

Request: Query: Ratio; subject: COc1ccc(/C=C/c2ccc(OC)c(OC)c2)cc1
Response: 5

====

Experiment: Radioprotective activity in rat thymocytes assessed as radio-modification factor pretreated at 10 uM followed by 2 Gy X-ray irradiation measured after 4 hrs by flow cytometric analysis relative to control
Assay type: ADME, cell-based
Conditions: thymocyte
measurement_kind: Ratio

Request: Which Ratio reading was recorded for the compound Oc1ccc(/C=C/c2ccc(O)c(O)c2)cc1 ?
Response: 1.3

Request: Look up Ratio: COc1ccc(/C=C/c2ccc(OC)c(OC)c2)cc1OC
Response: 1

Request: Can you look up the measured Ratio of COc1cc(/C=C/c2ccc(NC(C)=O)cc2)cc(OC)c1 for me?
Response: 1.21

Request: So what's the measured Ratio for this one? COc1ccc(/C=C/c2cccc(OC)c2)cc1
Response: 1.1

---
Request: Endpoint output: Ratio of COc1ccc(/C=C/c2ccc(OC)c(OC)c2)cc1 . Value?
Response: 1

Request: For the compound COc1cc(/C=C/c2ccc(F)cc2)cc(OC)c1 , what Ratio is on record?
Response: 1.26

====

Test: Radioprotective activity in rat thymocytes assessed as radio-modification factor pretreated at 100 uM followed by 2 Gy X-ray irradiation measured after 4 hrs by flow cytometric analysis relative to control
Type: ADME, cell-based
Settings: thymocyte
Overview of recorded Ratio for various compounds
No unit in the answer, only the number.

The examples below pair each entry with its known result.
Request: Fill in: Ratio of CC(=O)Oc1ccc(/C=C/c2cc(O)cc(O)c2)cc1 is ___
Response: 0.91

Request: Give its Ratio value. Item: COc1ccc(/C=C/c2cccc(OC)c2)cc1
Response: 1.1

Request: Item under review: Oc1ccc(/C=C/c2ccc(O)c(O)c2)cc1 . Reported Ratio?
Response: -0.3

Request: Could you share which Ratio value was measured for Oc1ccc(/C=C/c2ccccc2O)cc1 ?
Response: 0.5

Request: What does the data say about its Ratio? Entry: COc1ccc(/C=C/c2cc(OC)cc(OC)c2)cc1
Response: 0.31

Request: Ratio lookup needed for COc1ccc(/C=C/c2ccc(OC)c(OC)c2)cc1 , thanks.
Response: 0.7

Request: What Ratio value was documented for this compound, COc1cc(/C=C/c2ccc(NC(C)=O)cc2)cc(OC)c1 ?
Response: 0.99

Request: Which Ratio is listed for Cc1ccc(/C=C/c2cc(O)cc(O)c2)cc1 ?
Response: 0.11

Request: # get_value(readout='Ratio', item= COc1cccc(/C=C/c2cc(OC)cc(OC)c2)c1 )
Response: 1.1

Request: Given the entry Oc1cc(O)cc(/C=C/c2ccc(F)cc2)c1 , report its measured Ratio.
Response: -0.22

Further cases:
Request: What Ratio value was documented for this compound, COc1cc(/C=C/c2ccc(OC(C)=O)cc2)cc(OC)c1 ?
Response: 0.52

Request: Looking for the measured Ratio of COc1ccc(/C=C/c2ccc(OC)cc2)cc1 , can you help?
Response: 1.3

Request: Reported Ratio for Oc1ccc(/C=C/c2ccc(O)cc2)cc1 [TRANS-4,4'-DIHYDROXYSTILBENE] : what is it?
Response: 1.2

Request: # query: Ratio of entry COc1ccc(/C=C/c2ccc(OC)c(OC)c2)cc1OC
Response: 0.4

Request: I would be grateful if you could share the reported Ratio for Oc1cccc(/C=C/c2cc(O)cc(O)c2)c1 .
Response: 0.3

Request: // returns reported Ratio for input COc1ccc(/C=C/c2cc(OC)ccc2OC)cc1
Response: 0.9

Request: Which value of Ratio has been reported for Oc1cc(O)cc(/C=C/c2ccccc2O)c1 in the records?
Response: 0.4

Request: Bench note: what Ratio did Oc1ccc(/C=C/c2cccc(O)c2)cc1 [(E)-3,4'-STILBENDIOL] show?
Response: 1.6

====

Assay: Radioprotective activity in rat thymocytes assessed as radio-modification factor pretreated at 1000 uM followed by 2 Gy X-ray irradiation measured after 4 hrs by flow cytometric analysis relative to control
Type: ADME, cell-based
Details: thymocyte
measurement_kind: Ratio

Check out these entries, answers already filled in.
Request: For the compound shown here, COc1ccc(/C=C/c2cc(OC)cc(OC)c2)cc1 , give the reported Ratio.
Response: -0.15

Request: Form field: reported Ratio of COc1cc(/C=C/c2ccc(NC(C)=O)cc2)cc(OC)c1
Response: 1.05

Request: Suppose we examine the compound Oc1ccc(/C=C/c2cc(O)cc(O)c2)cc1 ; what Ratio value has been reported?
Response: -0.34

Request: State the recorded Ratio for this entry: COc1ccc(/C=C/c2ccc(OC)c(OC)c2)cc1
Response: 0.5

Request: Fill blank: measured Ratio of the compound COc1ccc(/C=C/c2ccc(OC)cc2)cc1 is ____.
Response: 1.5

---
Request: Query (compound): COc1cc(/C=C/c2ccc(OC(C)=O)cc2)cc(OC)c1 ; field requested: Ratio
Response: 0.07

====

Test system: Thymocyte
Test: Toxicity in rat thymocytes assessed as increase in cell death at 100 uM measured after 4 hrs by flow cytometric analysis relative to control
Type: cell-based
Documented Ratio across a set of molecules

Guide cases for Ratio, answers given:
Request: Would you kindly share the measured Ratio for Oc1cc(O)cc(/C=C/c2ccc(F)cc2)c1 ?
Response: < 5

Request: Given CC(=O)Oc1ccc(/C=C/c2cc(O)cc(O)c2)cc1 , state its recorded Ratio.
Response: < 5

Others:
Request: Any idea what its Ratio is? The molecule is Oc1ccc(/C=C/c2cc(O)ccc2O)cc1
Response: > 10

Request: GET /values?readout=Ratio&item= Oc1cc(O)cc(/C=C/c2ccc(Cl)cc2)c1
Response: > 10

Request: # lookup: Ratio of Oc1cccc(/C=C/c2cc(O)cc(O)c2)c1
Response: < 5

Request: Look at this molecule and give its reported Ratio. COc1ccc(/C=C/c2ccccc2OC)cc1
Response: < 5

Request: Which Ratio reading was recorded for the molecule Oc1ccc(/C=C/c2cccc(O)c2)cc1 [(E)-3,4'-STILBENDIOL] ?
Response: < 5

Request: Endpoint output: Ratio of COc1ccc(/C=C/c2cc(OC)ccc2OC)cc1 . Value?
Response: < 5

Request: Request the reported Ratio associated with COc1cc(/C=C/c2ccccc2OC)cc(OC)c1
Response: < 5

Request: Can you look up the measured Ratio of Oc1cc(O)cc(/C=C/c2ccccc2O)c1 for me?
Response: < 5

Request: Looking for the measured Ratio of COc1ccc(/C=C/c2ccc(OC)cc2)cc1 , can you help?
Response: < 5

Request: What value of measured Ratio is listed for Oc1ccc(/C=C/c2ccc(O)cc2)cc1 [TRANS-4,4'-DIHYDROXYSTILBENE] ?
Response: < 5

Request: Look at this molecule and give its reported Ratio. Oc1ccc(/C=C/c2cc(O)cc(O)c2)cc1 [RESVERATROL]
Response: < 5

Request: Tell me the measured Ratio of COc1cc(/C=C/c2ccc(F)cc2)cc(OC)c1 , please.
Response: > 10

Request: Dear colleague, I am looking for the recorded Ratio of the following molecule: Oc1ccc(/C=C/c2ccccc2O)cc1
Response: 5

Request: Name the reported Ratio value associated with the molecule COc1cccc(/C=C/c2cc(OC)cc(OC)c2)c1
Response: < 5

Request: For the molecule COc1ccc(/C=C/c2cc(OC)cc(OC)c2)cc1 [TRISMETHOXYRESVERATROL] , what Ratio is on record?
Response: < 5

Request: Find the recorded Ratio belonging to COc1cc(/C=C/c2ccc(OC(C)=O)cc2)cc(OC)c1 and report it.
Response: 5

Request: Query: Ratio; subject: Cc1ccc(/C=C/c2cc(O)cc(O)c2)cc1
Response: > 10

Request: Entry under review: COc1ccc(/C=C/c2ccc(OC)c(OC)c2)cc1 . Reported Ratio?
Response: < 5

Request: Can you share its Ratio? I mean this molecule: COc1ccc(/C=C/c2ccc(OC)c(OC)c2)cc1OC
Response: 5

Measured values drawn from ChEMBL document CHEMBL3826897 for this set.
